# Tested on: KM12 colon
# PROTOCOL_SUMMARY: NCI-60 one-dose screen, 48 h
# PROTOCOL_CONDITIONS: 10 µM unless noted
Compounds without any hit were thinned out: in the full panel of roughly 83,000, 20% have a hit. Active and inactive are the calls of the source. The calls were made as follows: active = growth percent below 10; inactive = the rest.
Possible outcomes: y (active), n (inactive)

QUERY_SMILES	ASSIGNED_LABEL
C=CC[N+](C)(C)CCn1c2ccccc2c2nc3cc(C)c(C)cc3nc21	n
N#Cc1c(-c2cccc(Cl)c2Cl)cc(-c2c[nH]c3ccccc23)[nH]c1=O	n
CN(C)c1nc(NCCNS(=O)(=O)c2ccc(C(=O)/C=C/c3ccc(Cl)cc3)cc2)nc(Nc2ccc(F)cc2)n1	y
O=C(N/N=C/c1ccc(-c2ccc(O)cc2)s1)c1[nH]c2ccc(Br)cc2c1-c1ccccc1	y
COc1ccc2[nH]c(O)c(N=NC(=O)Cn3c(-c4ccccc4)nc4cc(C)ccc43)c2c1	n
C/C(=N\N=C\c1cc([N+](=O)[O-])ccc1Cl)c1ccc2c(c1)Nc1ccccc1S2	n
CN1CCN(c2ccc3c(c2)nc(NNC(=O)c2ncccn2)c2cccn23)CC1	y
O=C(O)c1cccc(-c2ccc(/C=N/NC(=O)c3[nH]c4ccc(Br)cc4c3-c3ccccc3)s2)c1	n
COc1cccc(/C=C/C(=O)c2ccc(OC)c(S(N)(=O)=O)c2)c1	y
